System tested: V1a receptor (Homo sapiens, UniProt P37288)
Construct: host or cells: CHO cells
Sequence (P37288 whole entry): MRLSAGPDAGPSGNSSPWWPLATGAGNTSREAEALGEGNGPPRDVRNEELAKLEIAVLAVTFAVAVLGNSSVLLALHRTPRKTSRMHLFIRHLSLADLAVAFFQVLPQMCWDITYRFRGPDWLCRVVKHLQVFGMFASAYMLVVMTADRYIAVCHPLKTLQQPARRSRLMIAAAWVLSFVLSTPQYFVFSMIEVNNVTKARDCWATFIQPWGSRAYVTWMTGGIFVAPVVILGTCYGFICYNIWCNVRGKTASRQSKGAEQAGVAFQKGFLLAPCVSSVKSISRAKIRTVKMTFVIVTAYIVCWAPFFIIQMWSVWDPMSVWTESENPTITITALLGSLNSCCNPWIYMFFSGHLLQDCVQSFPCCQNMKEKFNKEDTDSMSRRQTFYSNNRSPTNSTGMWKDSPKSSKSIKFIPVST
Method notes: V1a Human Vasopressin GPCR Cell Based Agonist Calcium Flux Assay
Measurement parameters: Table 3; read-out: V1a Highest agonist effect (% of AVP); n = 2
# Emax values compiled below
The answer is to be given in %; state only the numeric part.

NCCCC[C@H](NC(=O)[C@@H]1CCCN1C(=O)[C@@H]1CSSCCC(=O)N[C@@H](Cc2ccc(O)cc2)C(=O)N[C@@H](Cc2ccccc2)C(=O)N[C@@H](CCCC(N)=O)C(=O)N[C@@H](CC(N)=O)C(=O)N1)C(=O)NCC(N)=O [SEQ ID NO. 25, Mpa-Tyr-Phe-Hgn-Asn-Cys-Pro-Lys-Gly-NH2]    42.8

Let's switch to this molecule now.
-- ask What does the data say about its Emax? Entry: NCCCC[C@@H](NC(=O)[C@@H]1CCCN1C(=O)[C@@H]1CSSCCC(=O)N[C@@H](Cc2ccc(O)cc2)C(=O)N[C@@H](Cc2ccccc2)C(=O)N[C@@H](CCCC(N)=O)C(=O)N[C@@H](CC(N)=O)C(=O)N1)C(=O)NCC(N)=O [SEQ ID NO. 18, Mpa-Tyr-Phe-Hgn-Asn-Cys-Pro-dLys-Gly-NH2]
-- reply 0.2
